Taken from ChEMBL document CHEMBL3232836.

SYSTEM: Mitogen-activated protein kinase 8 (Homo sapiens)
Sequence (P45983 whole entry): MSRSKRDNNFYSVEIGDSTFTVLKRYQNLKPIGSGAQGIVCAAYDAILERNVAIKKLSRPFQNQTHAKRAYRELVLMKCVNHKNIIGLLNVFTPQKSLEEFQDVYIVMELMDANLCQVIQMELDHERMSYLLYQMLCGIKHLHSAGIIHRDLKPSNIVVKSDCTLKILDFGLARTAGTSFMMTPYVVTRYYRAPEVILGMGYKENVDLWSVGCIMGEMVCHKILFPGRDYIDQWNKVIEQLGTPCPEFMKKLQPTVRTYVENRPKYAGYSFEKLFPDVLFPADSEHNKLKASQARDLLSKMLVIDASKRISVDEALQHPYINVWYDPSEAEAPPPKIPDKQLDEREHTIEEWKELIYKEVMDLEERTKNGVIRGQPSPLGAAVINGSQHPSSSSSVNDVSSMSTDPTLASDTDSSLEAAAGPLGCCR
ASSAY NAME: Inhibition of human JNK1
ASSAY METRIC: IC50

Task: For the compound `Oc1cccc(Nc2ccnc3[nH]c4ccccc4c23)c1` , report IC50.
Result: > 10 µM

---

ASSAY METRIC: IC50

Task: With Serine/threonine-protein kinase PAK 1 (Homo sapiens, UniProt Q13153) as the test system, provide measured IC50 for this molecule: `Oc1cccc(Nc2ccnc3[nH]c4ccccc4c23)c1`
Sequence (Q13153 whole entry): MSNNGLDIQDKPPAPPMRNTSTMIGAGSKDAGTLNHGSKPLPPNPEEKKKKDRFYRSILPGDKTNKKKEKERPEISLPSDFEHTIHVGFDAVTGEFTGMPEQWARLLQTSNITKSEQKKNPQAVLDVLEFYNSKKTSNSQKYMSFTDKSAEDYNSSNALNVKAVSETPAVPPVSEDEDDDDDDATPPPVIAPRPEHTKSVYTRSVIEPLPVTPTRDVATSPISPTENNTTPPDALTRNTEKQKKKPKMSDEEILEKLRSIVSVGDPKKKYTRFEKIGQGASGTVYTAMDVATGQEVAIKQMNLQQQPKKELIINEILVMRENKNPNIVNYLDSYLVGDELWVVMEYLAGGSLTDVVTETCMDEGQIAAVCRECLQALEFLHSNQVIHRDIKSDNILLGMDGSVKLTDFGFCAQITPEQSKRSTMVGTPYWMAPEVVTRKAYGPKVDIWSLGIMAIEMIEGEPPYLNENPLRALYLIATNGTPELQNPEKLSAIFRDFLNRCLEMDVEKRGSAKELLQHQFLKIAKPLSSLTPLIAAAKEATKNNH
Result: > 10 µM

---

SYSTEM: Homeodomain-interacting protein kinase 2 (Homo sapiens, UniProt Q9H2X6)
Sequence (Q9H2X6 whole entry): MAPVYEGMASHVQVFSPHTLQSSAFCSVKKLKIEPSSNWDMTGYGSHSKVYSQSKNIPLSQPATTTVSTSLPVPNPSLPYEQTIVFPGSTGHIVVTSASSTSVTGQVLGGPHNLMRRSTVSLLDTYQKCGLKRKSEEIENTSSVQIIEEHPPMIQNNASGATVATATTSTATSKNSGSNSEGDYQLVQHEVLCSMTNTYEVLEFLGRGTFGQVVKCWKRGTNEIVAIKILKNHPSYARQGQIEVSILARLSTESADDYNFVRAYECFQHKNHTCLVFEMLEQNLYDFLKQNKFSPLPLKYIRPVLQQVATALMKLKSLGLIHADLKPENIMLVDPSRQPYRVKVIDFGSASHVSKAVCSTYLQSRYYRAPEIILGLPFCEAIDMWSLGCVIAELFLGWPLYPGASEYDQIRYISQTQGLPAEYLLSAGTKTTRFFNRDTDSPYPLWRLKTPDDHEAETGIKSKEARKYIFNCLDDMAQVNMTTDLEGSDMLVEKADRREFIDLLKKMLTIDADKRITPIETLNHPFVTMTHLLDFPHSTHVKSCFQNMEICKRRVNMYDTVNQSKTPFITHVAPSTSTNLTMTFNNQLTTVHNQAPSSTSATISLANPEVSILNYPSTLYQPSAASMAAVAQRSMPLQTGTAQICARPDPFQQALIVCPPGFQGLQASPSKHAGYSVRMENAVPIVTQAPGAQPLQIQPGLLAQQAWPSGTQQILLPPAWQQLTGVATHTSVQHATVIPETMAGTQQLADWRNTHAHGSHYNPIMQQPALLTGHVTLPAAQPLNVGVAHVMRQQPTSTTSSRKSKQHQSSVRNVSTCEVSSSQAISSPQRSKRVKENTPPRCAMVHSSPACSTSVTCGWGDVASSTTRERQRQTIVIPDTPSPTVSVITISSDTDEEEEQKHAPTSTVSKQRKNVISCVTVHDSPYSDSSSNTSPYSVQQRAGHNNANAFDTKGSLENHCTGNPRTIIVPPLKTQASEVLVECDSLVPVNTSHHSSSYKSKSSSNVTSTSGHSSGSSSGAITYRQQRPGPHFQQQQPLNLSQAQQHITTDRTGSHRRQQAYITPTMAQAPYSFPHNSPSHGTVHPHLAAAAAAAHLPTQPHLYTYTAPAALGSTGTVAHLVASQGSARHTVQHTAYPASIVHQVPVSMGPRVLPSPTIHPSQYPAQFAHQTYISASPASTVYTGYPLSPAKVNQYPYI
pIC50: −log10 of the molar value.
ASSAY METRIC: pIC50

Task: Write pIC50 of `Oc1cccc(Nc2ccnc3[nH]c4ccccc4c23)c1` ; system used: Homeodomain-interacting protein kinase 2 (Homo sapiens, UniProt Q9H2X6)
Result: < 5.00

---

SYSTEM: Glycogen synthase kinase-3 beta (Homo sapiens, UniProt P49841)
ASSAY METRIC: IC50

Task: Fill: IC50 (Glycogen synthase kinase-3 beta (Homo sapiens, UniProt P49841)) for this compound `Oc1cccc(Nc2ccnc3[nH]c4ccccc4c23)c1`
Result: > 10 µM

---

SYSTEM: Calcium/calmodulin-dependent protein kinase type IV (Homo sapiens, UniProt Q16566)
Sequence (Q16566 whole entry): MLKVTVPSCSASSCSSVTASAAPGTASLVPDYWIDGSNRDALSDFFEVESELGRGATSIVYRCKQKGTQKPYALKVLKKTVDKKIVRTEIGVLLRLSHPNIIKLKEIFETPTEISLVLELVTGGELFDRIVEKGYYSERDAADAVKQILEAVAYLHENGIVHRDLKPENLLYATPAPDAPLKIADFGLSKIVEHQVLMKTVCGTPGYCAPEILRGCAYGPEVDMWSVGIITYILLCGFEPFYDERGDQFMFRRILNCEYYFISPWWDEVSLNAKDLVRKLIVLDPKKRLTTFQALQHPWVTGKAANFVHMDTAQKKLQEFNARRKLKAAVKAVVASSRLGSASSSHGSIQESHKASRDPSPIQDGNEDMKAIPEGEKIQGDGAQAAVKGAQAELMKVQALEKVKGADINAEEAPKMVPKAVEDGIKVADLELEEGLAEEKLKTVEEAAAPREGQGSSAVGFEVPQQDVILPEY
ASSAY NAME: Inhibition of human CAMK4
pIC50: −log10 of the molar value.
ASSAY METRIC: pIC50

Task: Return the recorded pIC50 value; entry: `Oc1cccc(Nc2ccnc3[nH]c4ccccc4c23)c1`
Result: < 5.00

---

ASSAY NAME: Inhibition of human MARK5
pIC50: −log10 of the molar value.
ASSAY METRIC: pIC50

Task: Using known records, supply pIC50 for `Oc1cccc(Nc2ccnc3[nH]c4ccccc4c23)c1`
Result: < 5.00

---

SYSTEM: Serine/threonine-protein kinase PAK 3 (Homo sapiens)
Sequence (O75914 whole entry): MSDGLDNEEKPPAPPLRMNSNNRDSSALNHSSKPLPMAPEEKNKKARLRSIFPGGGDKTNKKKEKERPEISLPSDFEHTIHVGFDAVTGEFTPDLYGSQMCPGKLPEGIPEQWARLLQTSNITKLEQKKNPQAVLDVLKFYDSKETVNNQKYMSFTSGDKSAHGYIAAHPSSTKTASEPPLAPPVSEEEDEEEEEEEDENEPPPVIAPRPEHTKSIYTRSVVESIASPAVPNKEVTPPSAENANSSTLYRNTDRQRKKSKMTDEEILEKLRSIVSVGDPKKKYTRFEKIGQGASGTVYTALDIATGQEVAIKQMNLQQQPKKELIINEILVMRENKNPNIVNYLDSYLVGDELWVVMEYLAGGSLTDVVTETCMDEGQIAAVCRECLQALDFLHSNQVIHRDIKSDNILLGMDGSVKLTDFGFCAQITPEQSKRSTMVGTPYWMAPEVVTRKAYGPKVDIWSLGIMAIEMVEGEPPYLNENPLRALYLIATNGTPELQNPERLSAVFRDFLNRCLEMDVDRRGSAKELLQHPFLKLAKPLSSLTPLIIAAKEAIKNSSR
ASSAY NAME: Inhibition of human PAK3
ASSAY METRIC: IC50

Task: Tell me its IC50 given `Oc1cccc(Nc2ccnc3[nH]c4ccccc4c23)c1` as the entry.
Result: > 10 µM

---

SYSTEM: MAP kinase-activated protein kinase 3 (Homo sapiens, UniProt Q16644)
ASSAY NAME: Inhibition of human MAPKAPK3
ASSAY METRIC: IC50

Task: Dear colleague, please send me the reported IC50 for `Oc1cccc(Nc2ccnc3[nH]c4ccccc4c23)c1` when you can.
Result: > 10 µM

---

SYSTEM: Mitogen-activated protein kinase 1 (Homo sapiens)
Sequence (P28482 whole entry): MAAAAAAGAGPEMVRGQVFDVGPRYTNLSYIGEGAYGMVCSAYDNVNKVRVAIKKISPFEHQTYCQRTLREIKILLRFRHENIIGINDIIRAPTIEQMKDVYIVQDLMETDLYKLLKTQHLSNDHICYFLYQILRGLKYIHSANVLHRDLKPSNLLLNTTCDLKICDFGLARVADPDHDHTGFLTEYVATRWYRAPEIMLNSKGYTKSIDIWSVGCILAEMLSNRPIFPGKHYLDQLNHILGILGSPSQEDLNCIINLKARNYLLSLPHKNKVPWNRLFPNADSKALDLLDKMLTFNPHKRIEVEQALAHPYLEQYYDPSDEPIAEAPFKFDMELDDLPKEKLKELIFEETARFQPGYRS
ASSAY NAME: Inhibition of human ERK2
ASSAY METRIC: IC50

Task: Respond only with IC50 recorded for `Oc1cccc(Nc2ccnc3[nH]c4ccccc4c23)c1`
Result: > 10 µM

---

ASSAY METRIC: IC50

Task: Fetch value of IC50 on Homeodomain-interacting protein kinase 1 (Homo sapiens) for `Oc1cccc(Nc2ccnc3[nH]c4ccccc4c23)c1` .
Sequence (Q86Z02 whole entry): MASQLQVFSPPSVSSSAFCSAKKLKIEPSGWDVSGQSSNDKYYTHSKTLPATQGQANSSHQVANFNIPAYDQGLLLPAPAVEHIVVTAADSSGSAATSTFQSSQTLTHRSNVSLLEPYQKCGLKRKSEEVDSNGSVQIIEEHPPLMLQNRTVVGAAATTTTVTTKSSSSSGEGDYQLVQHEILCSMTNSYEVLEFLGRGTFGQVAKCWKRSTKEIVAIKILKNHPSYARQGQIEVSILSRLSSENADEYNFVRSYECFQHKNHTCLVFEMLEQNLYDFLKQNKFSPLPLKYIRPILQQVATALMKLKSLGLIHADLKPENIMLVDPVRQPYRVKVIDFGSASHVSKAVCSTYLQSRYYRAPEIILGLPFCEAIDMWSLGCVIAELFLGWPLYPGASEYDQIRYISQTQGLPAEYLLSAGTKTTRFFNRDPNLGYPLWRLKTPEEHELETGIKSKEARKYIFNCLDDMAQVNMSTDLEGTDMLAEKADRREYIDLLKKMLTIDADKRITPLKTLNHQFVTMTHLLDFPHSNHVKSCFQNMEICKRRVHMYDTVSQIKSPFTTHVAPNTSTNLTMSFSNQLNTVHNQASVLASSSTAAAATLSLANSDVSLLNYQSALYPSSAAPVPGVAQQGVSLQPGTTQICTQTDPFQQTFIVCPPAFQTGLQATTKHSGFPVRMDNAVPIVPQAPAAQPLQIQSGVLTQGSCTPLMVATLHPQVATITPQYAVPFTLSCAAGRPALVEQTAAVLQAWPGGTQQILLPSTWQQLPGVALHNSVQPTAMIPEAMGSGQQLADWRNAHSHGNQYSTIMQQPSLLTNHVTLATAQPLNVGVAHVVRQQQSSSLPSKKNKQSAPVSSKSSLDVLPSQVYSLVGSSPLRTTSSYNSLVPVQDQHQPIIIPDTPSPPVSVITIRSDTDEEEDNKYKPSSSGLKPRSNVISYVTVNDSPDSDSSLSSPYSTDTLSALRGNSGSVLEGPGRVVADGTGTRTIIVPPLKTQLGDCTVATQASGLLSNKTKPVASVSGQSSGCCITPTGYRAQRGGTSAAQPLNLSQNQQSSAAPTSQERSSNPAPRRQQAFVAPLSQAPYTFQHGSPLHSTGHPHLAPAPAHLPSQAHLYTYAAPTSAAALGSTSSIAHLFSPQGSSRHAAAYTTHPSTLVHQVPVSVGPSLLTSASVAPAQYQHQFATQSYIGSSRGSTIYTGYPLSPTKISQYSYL
Result: > 10 µM

---

SYSTEM: Protein-tyrosine kinase 6 (Homo sapiens, UniProt Q13882)
Sequence (Q13882 whole entry): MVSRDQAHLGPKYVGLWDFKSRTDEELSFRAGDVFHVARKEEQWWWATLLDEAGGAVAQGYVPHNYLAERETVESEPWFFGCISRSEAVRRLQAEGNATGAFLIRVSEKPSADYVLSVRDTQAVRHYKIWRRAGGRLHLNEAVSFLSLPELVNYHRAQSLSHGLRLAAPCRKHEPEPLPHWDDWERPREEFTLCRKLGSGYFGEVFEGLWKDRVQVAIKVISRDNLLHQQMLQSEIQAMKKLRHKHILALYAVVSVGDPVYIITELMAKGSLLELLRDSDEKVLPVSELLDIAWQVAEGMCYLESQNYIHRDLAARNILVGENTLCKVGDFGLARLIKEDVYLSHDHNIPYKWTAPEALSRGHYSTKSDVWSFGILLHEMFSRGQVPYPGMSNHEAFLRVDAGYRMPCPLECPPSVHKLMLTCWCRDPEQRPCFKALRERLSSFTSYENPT
ASSAY NAME: Inhibition of Brk (unknown origin) using [gamma-33P]-ATP after 60 mins by scintillation counting
DETAILS: read-out: IC50
ASSAY METRIC: pIC50
In simple prose, pIC50 is minus the logarithm base ten of a concentration in moles per litre.

Task: Check the records and state pIC50 for `CCOc1cc(Nc2ccnc3[nH]c4ccccc4c23)ccc1Br`
Result: 6.81

Task: Consider the compound `Cc1ccc(Nc2ccnc3[nH]c4ccccc4c23)cc1Cl` and give its recorded pIC50.
Result: 7.12

Task: Give the measured pIC50 for `Fc1ccc(Nc2ccnc3[nH]c4ccccc4c23)cc1Cl`
Result: 7.16

Task: Please supply the value of reported pIC50 for the item `Oc1cccc(Nc2ccnc3[nH]c4ccccc4c23)c1`
Result: 8.50

Task: Provide pIC50 value for the following compound: `O=[N+]([O-])c1cccc(Nc2ccnc3[nH]c4ccccc4c23)c1`
Result: 8.25

Task: # return recorded pIC50 for input `Clc1cccc(Nc2ccnc3[nH]c4ccccc4c23)c1`
Result: 8.32

Task: Indicate the recorded pIC50 value for this compound: `Clc1cc(Cl)cc(Nc2ccnc3[nH]c4ccccc4c23)c1`
Result: 7.27

Task: Supply pIC50 value. Item: `COc1ccc(Nc2ccnc3[nH]c4ccccc4c23)cc1`
Result: 6.72

Task: State its pIC50: `COc1cc(Nc2ccnc3[nH]c4ccccc4c23)ccc1Br`
Result: 8.36

Task: State its pIC50 for this compound: `FC(F)(F)c1cccc(Nc2ccnc3[nH]c4ccccc4c23)c1`
Result: 7.23

Task: Consider the compound `CCOc1cccc(Nc2ccnc3[nH]c4ccccc4c23)c1` . State its measured pIC50.
Result: 6.81

---

SYSTEM: Mitogen-activated protein kinase 10 (Homo sapiens, UniProt P53779)
ASSAY NAME: Inhibition of human JNK3
pIC50: −log10 of the molar value.
ASSAY METRIC: pIC50

Task: State pIC50 on Mitogen-activated protein kinase 10 (Homo sapiens, UniProt P53779). Entry: `Oc1cccc(Nc2ccnc3[nH]c4ccccc4c23)c1`
Result: < 5.00
